Biological target: T1, human GITR (human, UniProt Q9Y5U5 26-241)
T1 sequence: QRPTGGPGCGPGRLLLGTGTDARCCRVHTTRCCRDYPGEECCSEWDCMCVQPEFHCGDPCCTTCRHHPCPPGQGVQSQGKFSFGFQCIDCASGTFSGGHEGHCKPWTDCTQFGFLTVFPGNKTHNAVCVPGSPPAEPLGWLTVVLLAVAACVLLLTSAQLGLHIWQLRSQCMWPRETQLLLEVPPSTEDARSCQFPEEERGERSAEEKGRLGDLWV
Assay: cell-based or functional assay
value type: Proliferation EC50 (µg/mL)
Entry rule: numbers only, all in µg/mL.

binder	Proliferation EC50 / µg/mL
33C9v4 (antibody, human IgG1, kappa, V domains shown, Engineered variant; also called Ab53; SS-16950) VH: QVQVVESGGGVVQPGRSLRLSCAASGFTFSSYGMHWVRQAPGKGLEWVSVIWYEGSNKYYAESVKGRFTISRDNSKNTLYLQMNSLRAEDTAVYYCARGGLLGYYYYYGMDVWGQGTTVTVSS VL: DIQMTQSPSSLSASVGDRVTITCRASQGIRNDLGWYQQKPGKAPKLLIYDASSLQSGVPSRFSGSGSGTEFTLTISSLQPEDFATYYCLQHHSYPWTFGQGTKVEIKR	0.017
9H6v4 (antibody, human IgG1, kappa, V domains shown, Engineered variant; also called Ab47; SS-16945) VH: QVQLVESGGGVVQPGRSLRLSCVASGFTFSSYGMHWIRQAPGKGLEWVAVIWYEGSNKYYADTVKGRFTISRDNSKNTLYLQMNSLRAEDTAVYYCARGGRLGKDYYSGMDVWGQGTTVTVSS VL: DIQMTQSPSSLSASVGDRVTITCRASQGIRNDLGWYQQKPGKAPKRLIYATSSLQSGVPSRFSGSGSGTEFTLTISSLQPEDFATYYCLQHNTYPWTFGQGTKVEIKR	0.007
5H7v14 (antibody, human IgG1, kappa, V domains shown, Engineered variant; also called Ab34; SS-16924) VH: QVQLQESGPGLVKPSETLSLTCTVSGGSISSGGYFWSWIRQPPGKGLEWIGYIYYSGTTYYNPSLKSRVTISIDTSKNQFSLKLSSVTAADTAVYYCARDLFYYDSSGPRGFEPWGQGTLVTVSS VL: EIVLTQSPGTLSLSPGERATLSCRASQTVSSNYLAWYQQKPGQAPRLLIYGSSTRATGIPDRFSGSGSGTDFTLTISRLEPEDFAVYYCQQYESSPWTFGQGTKVEIKR	0.031
41G5v1 (antibody, human IgG1, kappa, V domains shown, Engineered variant; also called Ab55; SS-16952) VH: QVQLVESGGGVVQPGRSLRLSCAASGFTFSSYGMHWVRQAPGKGLEWVAVIWYPGSNKYYADSVKGRFTISRDNSKNTLYLQMNSLRAEDTAVYYCARGGELGRYYYYGMDVWGQGTTVTVSS VL: DIQMTQSPSSLSASVGDRVTVTCRASQGIRNDLGWYQQKPGKAPKLLIYAASSLQSGVPSRFSGSGSGTEFTLTISSLQPEDFATYYCLQHNNYPWTFGQGTKVDIKR	0.017

Read the next record carefully.
## Task Tell me the measured Proliferation EC50 of 9H6v3 (antibody, human IgG1, kappa, V domains shown, Engineered variant; also called Ab46; SS-13806) VH: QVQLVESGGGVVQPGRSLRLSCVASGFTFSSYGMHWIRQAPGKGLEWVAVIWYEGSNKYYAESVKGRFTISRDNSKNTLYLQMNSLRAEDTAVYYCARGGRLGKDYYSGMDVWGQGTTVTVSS VL: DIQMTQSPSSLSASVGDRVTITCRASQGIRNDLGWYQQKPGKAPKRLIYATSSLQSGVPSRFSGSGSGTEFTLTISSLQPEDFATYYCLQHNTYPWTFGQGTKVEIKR , please.
## Result 0.006

Recorded values, source patent US20150064204A1.
